Test system: PPARg:RXRa 270nM:90nM, anti-RXR (NR concentration 270 nM, RXRa partner concentration 90 nM)
ASSAY_METHOD_TEXT: PBM binding z-score (relative to random genomic background probes); higher = stronger binding; sequences stand for … in GC…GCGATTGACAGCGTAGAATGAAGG
QUANTITY_NAME: PBM binding z-score
Just the number, please, no unit attached.

Solved entries (count: 8):
| RESIDUES | PBM binding z-score |
| --- | --- |
| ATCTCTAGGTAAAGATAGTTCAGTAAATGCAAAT | 0.691 |
| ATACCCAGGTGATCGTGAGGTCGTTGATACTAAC | 0.875 |
| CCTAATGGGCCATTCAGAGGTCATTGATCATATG | 2.27 |
| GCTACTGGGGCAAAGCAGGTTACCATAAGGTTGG | 2.63 |
| CAAACTAGCTCACAGAGGTCAAAGTCCGTGCGTA | 3.38 |
| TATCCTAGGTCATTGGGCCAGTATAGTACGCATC | 4.94 |
| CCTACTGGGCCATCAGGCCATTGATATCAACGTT | 1.79 |
| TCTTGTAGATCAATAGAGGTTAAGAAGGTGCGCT | 1.52 |

Record summary for "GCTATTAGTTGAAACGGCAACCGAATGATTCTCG" : reported PBM binding z-score = -0.00574

Record summary for "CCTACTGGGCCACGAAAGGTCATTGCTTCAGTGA" : reported PBM binding z-score = 4.91

Record summary for "AGAATGAGGTTACCAAAGCTCAGGGAAACGCTTG" : reported PBM binding z-score = 2.57

Record summary for "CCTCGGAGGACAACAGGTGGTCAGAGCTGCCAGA" : reported PBM binding z-score = -0.79

Record summary for "CCCTACGGGTCAAGGTTATAGCACGGGTGGTACG" : reported PBM binding z-score = 4.19

Record summary for "CCTATTAGTTGACCATAACGGCAACCGAAGCTCG" : reported PBM binding z-score = 0.486
